# Procedure details: yeast display, Sf9 membrane polyspecificity reagent, FACS + sequencing; frameworks hold sequencing errors
Test readout: polyreactivity (PSR sort gate)

>>> data_value("QVHLVESGGGLVQAGGSLRLSCAASGSTSRKYTMGWYRQAPGKERELVATISWSGGSTNYADSVKGRFTISRDNAKNTVYLQMNSLKPEETAVYYCKAYVSPRYRGSRYYYWGQGTQVTVSS")
"high polyreactivity"
>>> data_value("QVQLVESGGGLVQAGGSLRLSCAASGRTFAYYAMGWYRQAPGKERELVAAITTSGTRTYYADSVKGRFTISRDTAKNTVYLQMNSLKPEDTAVYSCAARYRYQYEFDYWGQGTQVTVSS")
"high polyreactivity"
>>> data_value("QFQLVETGGGLDQAGGSLRLSCAASGTTFGVYAMGWYRQAPGKERELVAVITSRGGSTYYADSVKGRFTISRDNAKNTVYLQMNSLIPEDTAVYYCNVDSAYRRPPYDYWGQGTQVTVSS")
"high polyreactivity"

---

# Procedure details: yeast display, Sf9 membrane polyspecificity reagent, FACS + sequencing; frameworks hold sequencing errors
Test readout: polyreactivity (PSR sort gate)

Below: 5 sequences and their reported polyreactivity (PSR sort gate).
>>> data_value("QVQLQESGGGLVQAGGSLRMSCAASGNIFDADIMGWYRQAPGKERELVASITDGRRTNYADSVKGRYTISRDSEKNTVYLQMNSLKPEDTAVYYCAAIAYPVVPTYFDYDSDYFHWGQGTQVTVIS")
"high polyreactivity"
>>> data_value("QVQLVESGGGLVQAGGSLRLSCAASGNIFSDYTMGWYRQAPGEERELVAAISGEGGTTYNADSVKGRFTISRDNAKNTVYLQMNRLKPEDPAVYYCAADGYYHAYDQFFIVYYEYDYWGQGTQVTVSS")
"low polyreactivity"
>>> data_value("QVQLVESGGGLVQAGGSLRLSCAASGFIFDVYAMGWYRQAPGKERELVAAISSSGGRTYYADSVKGRFTISRDNAKNTVYLQMNSLKPEDTAVYYCAAKTHSRTKVYTADYWGQGTQVTVSS")
"high polyreactivity"
>>> data_value("QVQLVESGGALVQAGGSLRLSCAASGPIFGVYAMGWYRQAPGKERELVAAITYTGASTYYADSVKGRFTISRDNAKNTVYLQMNSLKPEDTAVYYCAGRLWRRSRFDYWGQGTQVTVSS")
"high polyreactivity"
>>> data_value("QVQLVETGGGLVQAGGSLRLSCAASGITFERYVMGWYRQAPGKERELVAVITKRGGNTYYADSVKGRFTISRDNAKNTVYLQMNSLKPEDTSVYYCATRSGRSTGDYWGQGTQVTVSS")
"high polyreactivity"

Each of the following entries comes with a recorded value; kindly state polyreactivity (PSR sort gate) for each.
1. QVQLVESGGGLVQAGGSLRLSCAASGFTFPLYAMGWYRQAPGKETELVATISSSGSTYYADSVKGRFTISRDNAKNTVYLQMNSLKPEDTAVYYCIAAIQSYEGSGRYFRFDYWGQGTQVTVSS
2. QVQHVESGGGLVQAGGSLRLSCAASGSTFTWYTMGWYRQAPGKERELVATIRKRGGSTYYADSVKGRFTISRDNAKNTVYLQMNSLKPEDTAVYYCAAVYKVHSGLYEYWGQGTQVTVSS

Response:
1: low polyreactivity; 2: high polyreactivity

Provide each entry's polyreactivity (PSR sort gate) from the list below.
1. QVQHVESGGGLVQAGGSLRLSCAASGGIFYYNTMGWYRQAPGKERELVAAITGGGRTNYADSVKGRFTISRDNAKNTVYLQMNSLKPEDTAVYYCNAVYWRTRMDYWGQGTQVTVSS
2. QVQLVESGGGLVQAGGSLRLSCAATGSIFAVYAMGWYRQAPGKERELVARITRGGGSTYYADSVKGRFTISRDNAKNTVYLQMNSLKPEDTAVYYCAAARWSQYRTWMNYWGQGTQVTVSS
3. QVQLVESGGGLVQAGGSLRLSCAASGSTFGSYAMGWYRQAPGKERELVADISSRGASTYYADSVKGRFTISRDNAKNTVYLQMNSLKPEDTAVYYCARDVYIWYGYGYFPEYEYWGQGTQVTVSS
4. QVQLVESGGGLVQEGGSLRLSCAASGSTFSIYAMGWYRQAPGKERELVAGISGSGGSTYYADSVKGRFTISRDNAKNTVYLQMNSLKPEDTAVYYCAKRVLWGLDYCGQGTQVTVSS

Response:
["high polyreactivity", "high polyreactivity", "low polyreactivity", "low polyreactivity"]
